PROTOCOL_DESCRIPTION: qHTS assay to identify small molecule antagonists of the thyroid receptor (TR) signaling pathway - cell viability counter screen (AID 743064); note: nearly all actives have a fitted effect of over 50% in size
DETAILS: GH3.TRE-Luc viability, CellTiter-Fluor, 24 h; series mostly up to 70.3 µM
Inconclusive results are not listed. Calls of active or inactive are those of the source. Calls come from the whole dose curve; as a rule, active = well fitted cell-killing curve with a large enough effect in the repeat runs; inconclusive = weak or mixed curves, or effect the other way; inactive = no such curve, though single readings can be large or run the other way.
Choose the fitting class; nothing outside Yes for active, No for inactive is accepted.

COMPOUND: CCC/C=C/C=C/C(=O)O[C@H]1/C(=C/C(=O)OC)C[C@H]2C[C@H]([C@@H](C)O)OC(=O)C[C@H](O)C[C@@H]3C[C@H](OC(C)=O)C(C)(C)[C@](O)(C[C@@H]4C/C(=C/C(=O)OC)C[C@H](/C=C/C(C)(C)[C@]1(O)O2)O4)O3
CAT: Yes

Query compound follows.
(Q) Fill in: this test's call for CCC1(C)CC(=O)NC(=O)C1 is ___
(A) No

----------
TARGET_DESC: Acetylcholinesterase (Homo sapiens)
PROTOCOL_DESCRIPTION: Acetylcholinesterase (AChE) small molecule antagonists: fluorescence cell-based qHTS assay (AID 1347398); note: nearly all actives have a fitted effect of over 50% in size
DETAILS: SH-SY5Y cells; AChE activity; series mostly up to 115 µM
Results filed as inconclusive are left out. Calls of active or inactive are those of the source. Calls follow the shape of the full dose curve.
Choose the fitting class; nothing outside y for active, n for inactive is accepted.

Solved cases (5 shown):
COMPOUND: Brc1ccc(Oc2ccc(Br)cc2)cc1
CAT: n
--
COMPOUND: COc1ccccc1Oc1c(NS(=O)(=O)c2ccc(C(C)(C)C)cc2)nc(-c2ncccn2)nc1OCCO
CAT: n
--
COMPOUND: Cc1ccc2c(ccc3ccccc32)c1
CAT: n
--
COMPOUND: CO[C@H]1O[C@H](CO)[C@@H](O)[C@H](O)[C@H]1O
CAT: n
--
COMPOUND: CC(C)(CO)C(O)C(=O)NCCCO (stereo not drawn)
CAT: n

(Q) Fill in: this test's call for c1ccc2c(c1)Oc1ccccc1S2 is ___
(A) n

(Q) Fill in: this test's call for Nc1c(Cl)cc(Cl)cc1[N+](=O)[O-] is ___
(A) n

(Q) Fill in: this test's call for Cc1ccc(S(=O)(=O)NC(=O)NC2CCCCCCC2)cc1 is ___
(A) n

(Q) Fill in: this test's call for O=C(Nc1ccc([N+](=O)[O-])cc1Cl)c1cc(Cl)ccc1O is ___
(A) n

(Q) Fill in: this test's call for [O-][N+](=Nc1ccccc1)c1ccccc1 is ___
(A) n

----------
TARGET_DESC: Nuclear receptor ROR-gamma (Homo sapiens) (UniProt P51449)
PROTOCOL_DESCRIPTION: qHTS assay to identify small molecule antagonists of the retinoid-related orphan receptor gamma (ROR-gamma) signaling pathway (AID 1159521; note: nearly all actives have a fitted effect of over 50% in size)
DETAILS: Tet-on RORgamma CHO cells, RORE-luciferase, 16 h; series mostly up to 92.4 µM
Inconclusive results are not listed. Calls of active or inactive are those of the source. Calls come from the whole dose curve; as a rule, active = well fitted inhibition curve with a large enough effect in the repeat runs; inconclusive = weak or mixed curves, or effect the other way; inactive = no such curve, though single readings can be large or run the other way.
Choose the fitting class; nothing outside active, inactive is accepted.

Solved cases (4 shown):
SMILES_STR: O=C(Nc1ccccc1-c1ccc(Cl)cc1)c1cccnc1Cl
CAT: inactive

SMILES_STR: Nc1ccc([N+](=O)[O-])cc1
CAT: inactive

SMILES_STR: COc1cc(OC)c(OC)cc1C=O
CAT: inactive

SMILES_STR: COc1ccc(C(c2ccc(OC)cc2)C(Cl)(Cl)Cl)cc1
CAT: active

(Q) Fill in: this test's call for Cc1cc(C)c(C(=O)P(=O)(c2ccccc2)c2ccccc2)c(C)c1 is ___
(A) active

Sourced from PubChem BioAssay (Tox21)
